Conditions: in methanol, 311.15 K
readout: solubility (mole fraction)
Answer field: number only, no words.

**Query** GET /values?readout=solubility (mole fraction)&item= COc1cnc(Cl)nc1Cl
**Result** 0.114

====

Settings: in ethanol, 305.17 K
readout: solubility (mole fraction)
Answer field: number only, no words.

**Query** GET /values?readout=solubility (mole fraction)&item= COc1cnc(Cl)nc1Cl
**Result** 0.0655

====

Conditions: in ethyl acetate, 316.39 K
readout: solubility (mole fraction)
Answer field: number only, no words.

**Query** GET /values?readout=solubility (mole fraction)&item= COc1cnc(Cl)nc1Cl
**Result** 0.513

====

Conditions: in tetrachloromethane, 310.9 K
readout: solubility (mole fraction)
Answer field: number only, no words.

**Query** GET /values?readout=solubility (mole fraction)&item= COc1cnc(Cl)nc1Cl
**Result** 0.315

====

Conditions: in n-heptane, 298.1 K
readout: solubility (mole fraction)
Answer field: number only, no words.

**Query** GET /values?readout=solubility (mole fraction)&item= COc1cnc(Cl)nc1Cl
**Result** 0.0094

====

Conditions: in acetone, 299.36 K
readout: solubility (mole fraction)

**Query** GET /values?readout=solubility (mole fraction)&item= COc1cnc(Cl)nc1Cl
**Result** 0.368

====

Conditions: in acetone, 304.54 K
readout: solubility (mole fraction)
Answer field: number only, no words.

**Query** GET /values?readout=solubility (mole fraction)&item= COc1cnc(Cl)nc1Cl
**Result** 0.42

====

Settings: in tetrachloromethane, 304.82 K
readout: solubility (mole fraction)
Answer field: number only, no words.

**Query** GET /values?readout=solubility (mole fraction)&item= COc1cnc(Cl)nc1Cl
**Result** 0.196

====

Settings: in acetone, 307.53 K
readout: solubility (mole fraction)
Answer field: number only, no words.

**Query** GET /values?readout=solubility (mole fraction)&item= COc1cnc(Cl)nc1Cl
**Result** 0.45

====

Details: in tetrachloromethane, 309.57 K
readout: solubility (mole fraction)
Answer field: number only, no words.

**Query** GET /values?readout=solubility (mole fraction)&item= COc1cnc(Cl)nc1Cl
**Result** 0.288

====

Conditions: in ethyl acetate, 304.15 K
readout: solubility (mole fraction)
Answer field: number only, no words.

**Query** GET /values?readout=solubility (mole fraction)&item= COc1cnc(Cl)nc1Cl
**Result** 0.364

====

Settings: in methanol, 315.8 K
readout: solubility (mole fraction)
Answer field: number only, no words.

**Query** GET /values?readout=solubility (mole fraction)&item= COc1cnc(Cl)nc1Cl
**Result** 0.181

====

Settings: in acetone, 297.35 K
readout: solubility (mole fraction)
Answer field: number only, no words.

**Query** GET /values?readout=solubility (mole fraction)&item= COc1cnc(Cl)nc1Cl
**Result** 0.348

====

Conditions: in n-heptane, 312.89 K
readout: solubility (mole fraction)
Answer field: number only, no words.

**Query** GET /values?readout=solubility (mole fraction)&item= COc1cnc(Cl)nc1Cl
**Result** 0.0214

====

Conditions: in n-heptane, 303.81 K
readout: solubility (mole fraction)
Answer field: number only, no words.

**Query** GET /values?readout=solubility (mole fraction)&item= COc1cnc(Cl)nc1Cl
**Result** 0.0129

====

Details: in ethanol, 303.17 K
readout: solubility (mole fraction)
Answer field: number only, no words.

**Query** GET /values?readout=solubility (mole fraction)&item= COc1cnc(Cl)nc1Cl
**Result** 0.0584

====

Details: in acetone, 308.97 K
readout: solubility (mole fraction)
Answer field: number only, no words.

**Query** GET /values?readout=solubility (mole fraction)&item= COc1cnc(Cl)nc1Cl
**Result** 0.466

====

Details: in ethanol, 315.47 K
readout: solubility (mole fraction)
Answer field: number only, no words.

**Query** GET /values?readout=solubility (mole fraction)&item= COc1cnc(Cl)nc1Cl
**Result** 0.141

====

Settings: in ethyl acetate, 300.66 K
readout: solubility (mole fraction)
Answer field: number only, no words.

**Query** GET /values?readout=solubility (mole fraction)&item= COc1cnc(Cl)nc1Cl
**Result** 0.33

====

Conditions: in ethanol, 310.73 K
readout: solubility (mole fraction)
Answer field: number only, no words.

**Query** GET /values?readout=solubility (mole fraction)&item= COc1cnc(Cl)nc1Cl
**Result** 0.0972

====

Conditions: in methanol, 308.12 K
readout: solubility (mole fraction)
Answer field: number only, no words.

**Query** GET /values?readout=solubility (mole fraction)&item= COc1cnc(Cl)nc1Cl
**Result** 0.0893

====

Details: in n-heptane, 307.55 K
readout: solubility (mole fraction)
Answer field: number only, no words.

**Query** GET /values?readout=solubility (mole fraction)&item= COc1cnc(Cl)nc1Cl
**Result** 0.0157

====

Conditions: in methanol, 312.43 K
readout: solubility (mole fraction)
Answer field: number only, no words.

**Query** GET /values?readout=solubility (mole fraction)&item= COc1cnc(Cl)nc1Cl
**Result** 0.13

====

Settings: in tetrachloromethane, 299.42 K
readout: solubility (mole fraction)
Answer field: number only, no words.

**Query** GET /values?readout=solubility (mole fraction)&item= COc1cnc(Cl)nc1Cl
**Result** 0.13

====

Settings: in n-heptane, 310.97 K
readout: solubility (mole fraction)
Answer field: number only, no words.

**Query** GET /values?readout=solubility (mole fraction)&item= COc1cnc(Cl)nc1Cl
**Result** 0.0192

====

Settings: in ethyl acetate, 314.57 K
readout: solubility (mole fraction)
Answer field: number only, no words.

**Query** GET /values?readout=solubility (mole fraction)&item= COc1cnc(Cl)nc1Cl
**Result** 0.49

====

Settings: in n-heptane, 302.1 K
readout: solubility (mole fraction)
Answer field: number only, no words.

**Query** GET /values?readout=solubility (mole fraction)&item= COc1cnc(Cl)nc1Cl
**Result** 0.0116

====

Settings: in ethyl acetate, 305.62 K
readout: solubility (mole fraction)

**Query** GET /values?readout=solubility (mole fraction)&item= COc1cnc(Cl)nc1Cl
**Result** 0.382

====

Details: in n-heptane, 305.72 K
readout: solubility (mole fraction)
Answer field: number only, no words.

**Query** GET /values?readout=solubility (mole fraction)&item= COc1cnc(Cl)nc1Cl
**Result** 0.0141

====

Settings: in tetrachloromethane, 306.87 K
readout: solubility (mole fraction)
Answer field: number only, no words.

**Query** GET /values?readout=solubility (mole fraction)&item= COc1cnc(Cl)nc1Cl
**Result** 0.237

====

Conditions: in methanol, 306.57 K
readout: solubility (mole fraction)

**Query** GET /values?readout=solubility (mole fraction)&item= COc1cnc(Cl)nc1Cl
**Result** 0.0803

====

Settings: in n-heptane, 320.08 K
readout: solubility (mole fraction)
Answer field: number only, no words.

**Query** GET /values?readout=solubility (mole fraction)&item= COc1cnc(Cl)nc1Cl
**Result** 0.0324

====

Conditions: in tetrachloromethane, 305.8 K
readout: solubility (mole fraction)

**Query** GET /values?readout=solubility (mole fraction)&item= COc1cnc(Cl)nc1Cl
**Result** 0.214

====

Settings: in acetone, 310.25 K
readout: solubility (mole fraction)
Answer field: number only, no words.

**Query** GET /values?readout=solubility (mole fraction)&item= COc1cnc(Cl)nc1Cl
**Result** 0.481

====

Details: in tetrachloromethane, 312.15 K
readout: solubility (mole fraction)
Answer field: number only, no words.

**Query** GET /values?readout=solubility (mole fraction)&item= COc1cnc(Cl)nc1Cl
**Result** 0.343

====

Conditions: in acetone, 311.37 K
readout: solubility (mole fraction)
Answer field: number only, no words.

**Query** GET /values?readout=solubility (mole fraction)&item= COc1cnc(Cl)nc1Cl
**Result** 0.492

====

Conditions: in ethyl acetate, 313.07 K
readout: solubility (mole fraction)
Answer field: number only, no words.

**Query** GET /values?readout=solubility (mole fraction)&item= COc1cnc(Cl)nc1Cl
**Result** 0.468

====

Conditions: in acetone, 306.18 K
readout: solubility (mole fraction)
Answer field: number only, no words.

**Query** GET /values?readout=solubility (mole fraction)&item= COc1cnc(Cl)nc1Cl
**Result** 0.436

====

Conditions: in ethanol, 312.58 K
readout: solubility (mole fraction)
Answer field: number only, no words.

**Query** GET /values?readout=solubility (mole fraction)&item= COc1cnc(Cl)nc1Cl
**Result** 0.11

====

Conditions: in ethanol, 299.44 K
readout: solubility (mole fraction)
Answer field: number only, no words.

**Query** GET /values?readout=solubility (mole fraction)&item= COc1cnc(Cl)nc1Cl
**Result** 0.0474

====

Details: in methanol, 316.95 K
readout: solubility (mole fraction)
Answer field: number only, no words.

**Query** GET /values?readout=solubility (mole fraction)&item= COc1cnc(Cl)nc1Cl
**Result** 0.202
